The entries below come with measured Ki values attached.
# experimental-target: L-type calcium channel (Rattus norvegicus, UniProt P22002)
# Construct: membrane fragments of rat cardiac muscle; from tissue; host or cells: rat cardiac muscle membranes
# Sequence (P22002 whole entry, other chains not shown, the tested form may be a part): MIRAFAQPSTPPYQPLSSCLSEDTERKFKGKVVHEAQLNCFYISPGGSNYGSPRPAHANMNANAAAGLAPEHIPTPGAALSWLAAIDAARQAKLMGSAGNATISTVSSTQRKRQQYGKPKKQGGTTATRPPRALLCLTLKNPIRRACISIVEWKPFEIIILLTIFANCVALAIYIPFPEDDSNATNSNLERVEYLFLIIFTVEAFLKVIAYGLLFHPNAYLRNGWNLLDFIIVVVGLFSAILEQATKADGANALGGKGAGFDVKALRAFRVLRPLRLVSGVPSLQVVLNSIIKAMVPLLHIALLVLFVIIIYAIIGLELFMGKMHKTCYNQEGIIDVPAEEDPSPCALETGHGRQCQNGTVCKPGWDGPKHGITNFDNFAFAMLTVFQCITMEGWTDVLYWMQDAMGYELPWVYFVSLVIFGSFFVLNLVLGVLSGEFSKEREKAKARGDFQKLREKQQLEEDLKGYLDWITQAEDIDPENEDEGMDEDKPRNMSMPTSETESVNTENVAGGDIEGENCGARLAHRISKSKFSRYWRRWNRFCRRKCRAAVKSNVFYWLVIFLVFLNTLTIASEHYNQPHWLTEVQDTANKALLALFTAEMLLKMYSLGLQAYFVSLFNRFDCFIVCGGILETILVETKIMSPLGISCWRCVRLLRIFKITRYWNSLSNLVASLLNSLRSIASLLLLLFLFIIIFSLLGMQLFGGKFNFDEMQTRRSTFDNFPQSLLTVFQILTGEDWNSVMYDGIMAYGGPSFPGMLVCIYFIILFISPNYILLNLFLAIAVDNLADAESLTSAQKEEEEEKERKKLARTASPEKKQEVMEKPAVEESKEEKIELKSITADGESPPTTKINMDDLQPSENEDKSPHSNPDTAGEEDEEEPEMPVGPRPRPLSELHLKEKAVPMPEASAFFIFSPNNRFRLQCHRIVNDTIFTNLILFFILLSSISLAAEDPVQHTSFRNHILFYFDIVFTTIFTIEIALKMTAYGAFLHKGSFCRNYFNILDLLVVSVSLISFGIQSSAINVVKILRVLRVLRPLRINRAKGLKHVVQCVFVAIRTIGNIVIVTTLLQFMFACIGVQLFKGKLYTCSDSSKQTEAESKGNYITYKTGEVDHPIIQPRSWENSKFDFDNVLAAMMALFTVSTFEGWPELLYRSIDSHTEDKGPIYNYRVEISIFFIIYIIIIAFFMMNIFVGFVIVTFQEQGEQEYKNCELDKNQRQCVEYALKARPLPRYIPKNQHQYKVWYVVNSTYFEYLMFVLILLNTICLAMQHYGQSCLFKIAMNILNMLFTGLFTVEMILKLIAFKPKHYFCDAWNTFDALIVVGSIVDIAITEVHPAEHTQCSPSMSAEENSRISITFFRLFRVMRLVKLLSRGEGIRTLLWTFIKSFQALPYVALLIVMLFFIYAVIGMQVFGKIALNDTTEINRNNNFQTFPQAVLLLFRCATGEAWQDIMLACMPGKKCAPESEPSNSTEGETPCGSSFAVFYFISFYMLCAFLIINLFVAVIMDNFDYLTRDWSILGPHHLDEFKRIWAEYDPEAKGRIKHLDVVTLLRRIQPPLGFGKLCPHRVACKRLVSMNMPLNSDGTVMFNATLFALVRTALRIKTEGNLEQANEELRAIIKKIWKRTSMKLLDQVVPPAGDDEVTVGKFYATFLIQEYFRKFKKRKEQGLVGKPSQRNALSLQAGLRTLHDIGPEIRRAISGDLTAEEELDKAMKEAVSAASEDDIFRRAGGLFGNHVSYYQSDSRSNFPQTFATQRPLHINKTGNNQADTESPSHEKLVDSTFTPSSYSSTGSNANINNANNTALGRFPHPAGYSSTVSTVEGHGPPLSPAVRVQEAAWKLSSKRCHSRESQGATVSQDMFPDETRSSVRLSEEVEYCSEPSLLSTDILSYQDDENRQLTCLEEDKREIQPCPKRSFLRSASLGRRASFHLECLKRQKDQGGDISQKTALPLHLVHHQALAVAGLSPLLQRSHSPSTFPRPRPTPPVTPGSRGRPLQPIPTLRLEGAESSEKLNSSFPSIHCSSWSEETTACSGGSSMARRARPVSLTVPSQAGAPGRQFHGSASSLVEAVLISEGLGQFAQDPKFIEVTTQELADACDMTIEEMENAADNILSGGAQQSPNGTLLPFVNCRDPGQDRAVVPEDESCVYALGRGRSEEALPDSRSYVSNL
# Sequence (P54290 25-944 partner limits assumed, other chains not shown): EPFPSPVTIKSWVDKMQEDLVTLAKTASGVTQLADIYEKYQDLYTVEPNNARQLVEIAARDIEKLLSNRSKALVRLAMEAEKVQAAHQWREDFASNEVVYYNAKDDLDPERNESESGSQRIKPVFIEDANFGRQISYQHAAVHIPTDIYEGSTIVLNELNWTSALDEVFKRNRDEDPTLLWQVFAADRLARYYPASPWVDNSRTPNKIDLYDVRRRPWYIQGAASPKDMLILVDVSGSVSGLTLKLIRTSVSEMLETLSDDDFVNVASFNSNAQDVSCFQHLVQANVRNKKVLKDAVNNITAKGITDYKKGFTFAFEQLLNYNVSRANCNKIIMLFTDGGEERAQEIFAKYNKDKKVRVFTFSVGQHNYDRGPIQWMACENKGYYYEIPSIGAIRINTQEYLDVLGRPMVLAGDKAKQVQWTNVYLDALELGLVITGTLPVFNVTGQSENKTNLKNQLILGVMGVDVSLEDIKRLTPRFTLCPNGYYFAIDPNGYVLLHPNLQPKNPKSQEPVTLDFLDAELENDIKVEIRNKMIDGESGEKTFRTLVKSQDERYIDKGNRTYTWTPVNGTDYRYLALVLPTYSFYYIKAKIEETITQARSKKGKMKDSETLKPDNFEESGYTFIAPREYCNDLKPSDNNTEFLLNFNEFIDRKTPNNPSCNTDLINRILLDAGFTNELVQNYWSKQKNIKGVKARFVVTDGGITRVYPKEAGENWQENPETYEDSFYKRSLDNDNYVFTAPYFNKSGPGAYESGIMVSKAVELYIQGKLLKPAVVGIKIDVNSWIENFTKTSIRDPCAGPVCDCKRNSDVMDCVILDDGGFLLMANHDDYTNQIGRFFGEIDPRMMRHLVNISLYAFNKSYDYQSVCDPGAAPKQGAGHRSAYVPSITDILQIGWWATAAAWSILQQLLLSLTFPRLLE
# Sequence (P54290 945-1091 partner limits assumed, other chains not shown): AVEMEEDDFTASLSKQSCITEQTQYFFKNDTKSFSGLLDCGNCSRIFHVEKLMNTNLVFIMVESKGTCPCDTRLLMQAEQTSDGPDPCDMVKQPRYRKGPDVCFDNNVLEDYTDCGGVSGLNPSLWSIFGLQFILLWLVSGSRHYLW
# assay-name: Competition binding of [3H]nitrendipine to membrane fragments of rat cardiac muscle
# conditions-used: [3H]nitrendipine, rat cardiac muscle membranes; mean; read-out: PKi Ca (converted)
Express it in µM; write the number only.

A selection of reference data follows.
COc1ccc(C2(c3ccccc3)CCN(CCCNC(=O)C3=C(COCCN=[N+]=[N-])NC(C)=C(C(N)=O)C3c3ccc([N+](=O)[O-])cc3)CC2)cc1 (stereo not drawn) : 12.3
CCC1=C(C(=O)O)C(c2ccc([N+](=O)[O-])cc2)C(C(=O)NCCCN2CCC(C(=O)OC)(c3ccccc3)CC2)=C(COCCN=[N+]=[N-])N1 (stereo not drawn) : 70.8
COC(=O)C1(c2ccccc2)CCN(CCCNC(=O)C2=C(C)NC(C)=C(C(C)=O)C2c2ccc([N+](=O)[O-])cc2)CC1 (stereo not drawn) : 67.6
CCC1=C(C(=O)NC)C(c2ccc([N+](=O)[O-])cc2)C(C(=O)NCCCN2CCC(C(=O)OC)(c3ccccc3)CC2)=C(COCCN=[N+]=[N-])N1 (stereo not drawn) : 33.9
CCC1=C(C(=O)O)C(c2ccc([N+](=O)[O-])cc2)C(C(=O)NCCCN2CCC(c3ccccc3)CC2)=C(COC)N1 (stereo not drawn) : 275

Problem: Request the reported Ki associated with CCC1=C(C(=O)OCCC#N)C(c2ccc([N+](=O)[O-])cc2)C(C(=O)NCCCN2CCC(c3ccccc3)CC2)=C(COC)N1 (stereo not drawn)
Result: 14.1

Problem: Request the reported Ki associated with CCOC(=O)C1(c2ccccc2)CCN(CCCNC(=O)C2=C(C)NC(C)=C(C(C)=O)C2c2ccc([N+](=O)[O-])cc2)CC1 (racemic)
Result: 263

Problem: Request the reported Ki associated with COC(=O)C1(c2ccccc2)CCN(CCCNC(=O)C2=C(C)NC(C)=C(C(N)=O)C2c2ccc([N+](=O)[O-])cc2)CC1 (stereo not drawn)
Result: 178

Problem: Request the reported Ki associated with COC(=O)C1(c2ccccc2)CCN(CCCNC(=O)C2=C(COCCN=[N+]=[N-])NC(C)=C(C(N)=O)C2c2ccc([N+](=O)[O-])cc2)CC1 (stereo not drawn)
Result: 74.1

Problem: Request the reported Ki associated with CCC1=C(C(N)=O)C(c2ccc([N+](=O)[O-])cc2)C(C(=O)NCCCN2CCC(C(=O)OC)(c3ccccc3)CC2)=C(COCCN=[N+]=[N-])N1 (stereo not drawn)
Result: 389

Problem: Request the reported Ki associated with CCNC(=O)C1=C(CC)NC(COCCN=[N+]=[N-])=C(C(=O)NCCCN2CCC(C(=O)OC)(c3ccccc3)CC2)C1c1ccc([N+](=O)[O-])cc1 (stereo not drawn)
Result: 9.12

Problem: Request the reported Ki associated with CCC1=C(C(=O)OCCC#N)C(c2ccc([N+](=O)[O-])cc2)C(C(=O)NCCCN2CCC(C(=O)OC)(c3ccccc3)CC2)=C(COCCN=[N+]=[N-])N1 (stereo not drawn)
Result: 8.71

* * *

# experimental-target: α1A Human Adrenergic Receptor (Homo sapiens)
# Construct: The entire coding region of α1A (1719 bp); expressed in transfected cells
# Sequence (P25100 whole entry): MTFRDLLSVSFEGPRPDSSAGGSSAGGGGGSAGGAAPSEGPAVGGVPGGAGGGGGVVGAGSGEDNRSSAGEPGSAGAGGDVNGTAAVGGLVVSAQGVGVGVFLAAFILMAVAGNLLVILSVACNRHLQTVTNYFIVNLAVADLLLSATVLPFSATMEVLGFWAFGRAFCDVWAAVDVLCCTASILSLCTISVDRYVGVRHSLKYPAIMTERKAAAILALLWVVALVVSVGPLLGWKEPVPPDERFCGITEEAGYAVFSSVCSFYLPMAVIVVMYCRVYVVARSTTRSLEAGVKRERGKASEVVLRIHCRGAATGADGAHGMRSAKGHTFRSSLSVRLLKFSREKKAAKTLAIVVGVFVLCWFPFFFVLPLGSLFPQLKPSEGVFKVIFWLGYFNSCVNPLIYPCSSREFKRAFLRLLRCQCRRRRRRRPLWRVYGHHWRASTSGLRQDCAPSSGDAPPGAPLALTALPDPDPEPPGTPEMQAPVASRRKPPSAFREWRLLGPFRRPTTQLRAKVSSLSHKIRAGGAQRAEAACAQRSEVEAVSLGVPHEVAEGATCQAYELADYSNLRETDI
# assay-name: Radioligand binding, [3H]prazosin, cloned human α1A adrenergic receptor
# conditions-used: [3H]prazosin, cloned human receptor in LM(tk-) cell membranes; SEM and n in lines below
measure-name: pKi alpha-1 1a

A selection of reference data follows.
CC1=C(C(N)=O)C(c2ccc([N+](=O)[O-])cc2)C(C(=O)NCCCN2CCC(c3ccccc3)(c3ccccc3)CC2)=C(C)N1 (single isomer, unassigned; (+)) [(+)-2] : 6.40
CC1=C(C(N)=O)C(c2ccc([N+](=O)[O-])cc2)C(C(=O)NC2CCN(Cc3ccccc3)CC2)=C(c2ccoc2)N1.Cl.O (stereo not drawn) : 5.45
CCC1=C(C(=O)NCCCCN2CCC(c3ccccc3)CC2)C(c2ccc([N+](=O)[O-])cc2)C(C(N)=O)=C(C)N1.Cl.O (stereo not drawn) : 6.83
COC(=O)C1=C(C)NC(c2ccccc2)=C(C(=O)NCCCN2CCC(c3ccccc3)CC2)C1c1ccc([N+](=O)[O-])cc1.Cl (stereo not drawn) : 6.99
CCC1=C(C(=O)NCCCN2CCc3cc(OC)c(OC)cc3C2)C(c2ccc([N+](=O)[O-])cc2)C(C(N)=O)=C(C)N1.Cl.O (stereo not drawn) : 5.89

Problem: Request the reported pKi alpha-1 1a associated with CC1=C(C(=O)NCCCN2CCC(c3ccccc3)(c3ccccc3)CC2)C(c2ccc([N+](=O)[O-])cc2)C(C(=O)N(C)C)=C(C)N1 (stereo not drawn)
Result: 5.77

Problem: Request the reported pKi alpha-1 1a associated with COC(=O)C1=C(C)NC(C)=C(C(=O)NCCCCN2CCC(c3ccccc3)(c3ccccc3)CC2)C1c1ccc([N+](=O)[O-])cc1.Cl.O (stereo not drawn)
Result: 6.49

Problem: Request the reported pKi alpha-1 1a associated with COc1cc2c(c(OC)c1)CCN(CCCNC(=O)C1=C(c3ccoc3)NC(C)=C(C(N)=O)C1c1ccc([N+](=O)[O-])cc1)C2.Cl.O (stereo not drawn)
Result: 5.96

Problem: Request the reported pKi alpha-1 1a associated with CC(=O)C1=C(C)NC(C)=C(C(=O)NCCCN2CCC(c3ccccc3)(c3ccccc3)CC2)C1c1ccc([N+](=O)[O-])cc1 (stereo not drawn)
Result: 6.29
